B1: Vascular endothelial growth factor receptor 1 (Homo sapiens), P17948 (parent)
chain: MVSYWDTGVLLCALLSCLLLTGSSSGSKLKDPELSLKGTQHIMQAGQTLHLQCRGEAAHKWSLPEMVSKESERLSITKSACGRNGKQFCSTLTLNTAQANHTGFYSCKYLAVPTSKKKETESAIYIFISDTGRPFVEMYSEIPEIIHMTEGRELVIPCRVTSPNITVTLKKFPLDTLIPDGKRIIWDSRKGFIISNATYKEIGLLTCEATVNGHLYKTNYLTHRQTNTIIDVQISTPRPVKLLRGHTLVLNCTATTPLNTRVQMTWSYPDEKNKRASVRRRIDQSNSHANIFYSVLTIDKMQNKDKGLYTCRVRSGPSFKSVNTSVHIYDKAFITVKHRKQQVLETVAGKRSYRLSMKVKAFPSPEVVWLKDGLPATEKSARYLTRGYSLIIKDVTEEDAGNYTILLSIKQSNVFKNLTATLIVNVKPQIYEKAVSSFPDPALYPLGSRQILTCTAYGIPQPTIKWFWHPCNHNHSEARCDFCSNNEESFILDADSNMGNRIESITQRMAIIEGKNKMASTLVVADSRISGIYICIASNKVGTVGRNISFYITDVPNGFHVNLEKMPTEGEDLKLSCTVNKFLYRDVTWILLRTVNNRTMHYSISKQKMAITKEHSITLNLTIMNVSLQDSGTYACRARNVYTGEEILQKKEITIRDQEAPYLLRNLSDHTVAISSSTTLDCHANGVPEPQITWFKNNHKIQQEPGIILGPGSSTLFIERVTEEDEGVYHCKATNQKGSVESSAYLTVQGTSDKSNLELITLTCTCVAATLFWLLLTLFIRKMKRSSSEIKTDYLSIIMDPDEVPLDEQCERLPYDASKWEFARERLKLGKSLGRGAFGKVVQASAFGIKKSPTCRTVAVKMLKEGATASEYKALMTELKILTHIGHHLNVVNLLGACTKQGGPLMVIVEYCKYGNLSNYLKSKRDLFFLNKDAALHMEPKKEKMEPGLEQGKKPRLDSVTSSESFASSGFQEDKSLSDVEEEEDSDGFYKEPITMEDLISYSFQVARGMEFLSSRKCIHRDLAARNILLSENNVVKICDFGLARDIYKNPDYVRKGDTRLPLKWMAPESIFDKIYSTKSDVWSYGVLLWEIFSLGGSPYPGVQMDEDFCSRLREGMRMRAPEYSTPEIYQIMLDCWHRDPKERPRFAELVEKLGDLLQANVQQDGKDYIPINAILTGNSGFTYSTPAFSEDFFKESISAPKFNSGSSDDVRYVNAFKFMSLERIKTFEELLPNATSMFDDYQGDSSTLLASPMLKRFTWTDSKPKASLKIDLRVTSKSKESGLSDVSRPSFCHSSCGHVSEGKRRFTYDHAELERKIACCSPPPDYNSVVLYSTPPI

Variants of: B1
Conditions: with p85a_human PIK3R1, P27986
Sequence (P27986 whole entry): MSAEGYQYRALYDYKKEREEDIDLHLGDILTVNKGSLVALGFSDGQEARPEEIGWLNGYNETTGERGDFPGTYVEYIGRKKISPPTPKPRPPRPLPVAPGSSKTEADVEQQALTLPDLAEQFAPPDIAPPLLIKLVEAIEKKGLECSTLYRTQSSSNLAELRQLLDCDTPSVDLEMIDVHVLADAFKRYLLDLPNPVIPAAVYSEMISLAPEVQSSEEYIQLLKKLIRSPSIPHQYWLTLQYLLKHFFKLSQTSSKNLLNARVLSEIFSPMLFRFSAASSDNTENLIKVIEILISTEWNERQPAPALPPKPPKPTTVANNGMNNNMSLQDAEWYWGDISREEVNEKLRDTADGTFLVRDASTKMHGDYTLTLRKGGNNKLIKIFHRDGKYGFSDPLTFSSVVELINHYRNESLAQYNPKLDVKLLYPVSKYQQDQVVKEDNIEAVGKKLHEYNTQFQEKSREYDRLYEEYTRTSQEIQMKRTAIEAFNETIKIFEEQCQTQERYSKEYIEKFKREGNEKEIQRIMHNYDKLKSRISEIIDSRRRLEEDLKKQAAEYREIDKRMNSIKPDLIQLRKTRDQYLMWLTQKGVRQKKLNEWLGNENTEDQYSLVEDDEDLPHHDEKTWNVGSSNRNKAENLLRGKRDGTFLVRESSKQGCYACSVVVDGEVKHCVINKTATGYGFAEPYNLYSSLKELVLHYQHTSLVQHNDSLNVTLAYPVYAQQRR
measuredParameter: effect of a mutation on the interaction

Query block: Endpoint output: effect of a mutation on the interaction of "Y1124F;Y1184F;Y1333F" . Value?
Result block: with no effect

Query block: Same for "Y1309F"
Result block: with no effect

Query block: Same for "Y1327F"
Result block: with no effect
